These entries and their values trace back to ChEMBL document CHEMBL1149882.

Field: MIC. Provide a value for each of the compounds that follow.
system: Staphylococcus aureus; experiment: Antimicrobial activity against methicillin-resistant Staphylococcus aureus ATCC 700788; assay type: functional

## Task Give reported MIC value for COC(=O)C(C)(O)[C@](O)(C[C@H](C)CCC/C(C)=C/CC/C(C)=C/CCc1ccoc1)C(=O)OC (some centres undefined)
## Result > 100 µg/mL

## Task Give reported MIC value for `C/C(=C/CC[C@@H](C)CC(=O)O)CC/C=C(/C)CCCC1=CC(=O)OC1=O`
## Result > 100 µg/mL

## Task Give reported MIC value for COC(=O)C(C)(O)[C@](O)(C[C@H](C)CCC/C(C)=C/CC/C(C)=C/CCC1=CCN(CC(=O)O)C1=O)C(=O)OC (some centres undefined)
## Result > 100 µg/mL

## Task Give reported MIC value for CC1=C(O)/C(=C/[C@H](C)CCC/C(C)=C/CC/C(C)=C/CCC2=CC(O)OC2=O)OC1=O (some centres undefined)
## Result > 100 µg/mL

## Task Give reported MIC value for CC1=C(O)/C(=C/[C@H](C)CC/C=C(/C)CC/C=C(/C)CCCC2=CC(O)OC2=O)OC1=O (some centres undefined)
## Result > 100 µg/mL

## Task Give reported MIC value for CC1=C(O)/C(=C/[C@H](C)CCC/C(C)=C/CCC(C)(O)CCCc2ccoc2)OC1=O (some centres undefined)
## Result > 100 µg/mL

## Task Give reported MIC value for COC1C=C(CC/C=C(\C)CC/C=C(\C)CCC[C@@H](C)/C=C2\OC(=O)C(C)=C2O)C(OC)O1 (some centres undefined)
## Result 100 µg/mL

## Task Give reported MIC value for `CC1=C(O)/C(=C/[C@H](C)CC/C=C(/C)CC/C=C(/C)CCCc2ccoc2)OC1=O`
## Result 12.5 µg/mL

## Task Give reported MIC value for COC1C=C(CCC/C(C)=C\CC/C(C)=C\CC[C@@H](C)/C=C2\OC(=O)C(C)=C2O)C(OC)O1 (some centres undefined)
## Result 100 µg/mL
